# systemUnderTest: T1, hCD27-muFc (human; mouse, UniProt P26842 20-192)
# T1 construct: range 1-192; Secreted from HEK293, Protein A purified; not shown: mouse IgG1-Fc (muFc), residues 98 to 324 of UniProt P01868
# T1 sequence (looked up): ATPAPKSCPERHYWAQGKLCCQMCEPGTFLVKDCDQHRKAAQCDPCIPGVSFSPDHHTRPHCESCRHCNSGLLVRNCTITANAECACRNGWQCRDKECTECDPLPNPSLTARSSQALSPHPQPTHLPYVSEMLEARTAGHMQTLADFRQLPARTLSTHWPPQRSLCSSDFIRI
# experimentalProtocol: ELISA, plate coated with hCD27-muFc, Test 2
Listed here: items and their measured EC50.

Examples with their reported EC50 follow.
{"binder": "d12674 (antibody, human IgG1, V domains shown, not shown: a dimerising Fc or GST, Humanized m2F11, human IgG1 / kappa) VH: EVHLQESGGGLVKPGGSLRLSCAASGFTFSSYAMSWVRQAPGKGLEWVAIIGDGDTYTYYPDSVKGRFTISRDNSKNRLYLQMNDLKSEDTAMYYCVRTRGGPFDYWGQGTTLTVSS VL: EILLTQSPAFMSATPGEKVTITCSASSSVGSMHWYQQKSGQSPRRLIYDTSKLASGVPDRFSGSGSGTDYTLTISSLEAEDAATYYCQQWSSIPPTFGAGTTLELK", "EC50": "0.0424 µg/mL"}
{"binder": "m2F11 (antibody, human IgG1, V domains shown, Chimeric antibody: mouse VH/VL on human IgG1 / human kappa constant regions; Parent of the humanized antibodies; also called clone 2F11; not shown: human IgG1 constant region, UniProt P01857) VH: EVQLQESGGDLVKPGGSLKLSCAASGFTFSSYAMSWVRQTPEKRLEWVAIIGDGDTYTYYPDSVKGRFTVSRDNAKNNLYLQMSHLKSEDTAMYYCVRTRGGPFDYWGQGTTLTVSS VL: DIVLTQTPALMSASPGEKVTMTCSASSSVGSMHWYQQKSGTSPKRWIYDTSKLASGVPARFSGSGSGTSYSLTISSMEAEDAATYYCQQWSSIPPTFGAGTTLELK", "EC50": "0.0279 µg/mL"}
{"binder": "16647 (antibody, human IgG1, V domains shown, not shown: a dimerising Fc or GST, Humanized m2F11, human IgG1 / kappa) VH: QVELRESGGGLVKPGGSLRLSCAASGFTFSSYAMSWVRQMPGKGLEWVAIIGDGDTYTYYPDSVKGRFTISRDNSKNRLYLQMNSLKSEDTAMYYCVRTRGGPFDYWGQGTTLTVSS VL: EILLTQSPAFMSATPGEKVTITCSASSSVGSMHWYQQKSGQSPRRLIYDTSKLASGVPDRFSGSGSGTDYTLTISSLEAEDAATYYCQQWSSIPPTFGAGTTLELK", "EC50": "0.0445 µg/mL"}

Entry d14822 (antibody, human IgG1, V domains shown, not shown: a dimerising Fc or GST, Humanized m2F11, human IgG1 / kappa) VH: EVHLQESGGGLVKPGGSLRLSCAASGFTFSSYAMSWVRQTPDKGLEWVAIIGDGDTYTYYPDSVKGRFTISRDNSKNTLYLQMNDLKSEDTAMYYCVRTRGGPFDYWGQGTTLTVSS VL: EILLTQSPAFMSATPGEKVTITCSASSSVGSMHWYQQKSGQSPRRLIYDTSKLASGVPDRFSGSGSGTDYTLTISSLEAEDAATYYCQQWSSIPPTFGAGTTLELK , EC50 reported as 0.0339 µg/mL

Entry 9424 (antibody, human IgG1, V domains shown, not shown: a dimerising Fc or GST, Humanized m2F11, human IgG1 / kappa) VH: EVHLQESGGGLVKPGGSLRLSCAASGFTFSSYAMSWVRQTPEKGLEWVAIIGDGDTYTYYPDSVKGRFTISRDNAKNTLYLQMNSLKSEDTAMYYCVRTRGGPFDYWGQGTTLTVSS VL: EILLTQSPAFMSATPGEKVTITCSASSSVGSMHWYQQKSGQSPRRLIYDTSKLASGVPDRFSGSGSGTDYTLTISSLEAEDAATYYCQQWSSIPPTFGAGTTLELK , EC50 reported as 0.0342 µg/mL
